Would you kindly list GI50 for each of these molecules?
System: TK-10
test details: NCI tumour cell line growth inhibition, 48 h
Activity calls are given as the source filed them. Cut-off read from the data, not from the text of the source: active = GI50 up to about 1.1 µM and inactive = higher. Where a SMILES comes first, the peptide text is derived from it. The star is where a group is joined. Cbz = O=C(OCc1ccccc1)*; NHNH2 = NN*

Inquiry: For the molecule shown here, O=C1C2Cc3ccccc3CN2C(=O)N1CN1CCN(CN2C(=O)C3Cc4ccccc4CN3C2=O)CC1 (centres undefined) , give the reported GI50.
Reply text: > 100 µM (inactive)

Inquiry: Same question, COc1ccc(/C=N/C23CC4CC(CC(C4)C2)C3)cc1 this time
Reply text: > 100 µM (inactive)

Inquiry: Same question, CCOC1=NC(C(F)(F)F)(C(F)(F)F)N=C(N2CCOCC2)O1 this time
Reply text: > 100 µM (inactive)

Inquiry: Same question, CCOC(=O)CCC(NC(=O)OCc1ccccc1)C(=O)NC(CCC(=O)OCC)C(=O)NN (centres undefined) (Cbz-Glu(OEt)-Glu(OEt)-NHNH2; configuration not given here) this time
Reply text: > 100 µM (inactive)

Inquiry: Same question, Cc1sc2nc(-c3cccc([N+](=O)[O-])c3)c(/C=N/N=C(N)N)n2c1C this time
Reply text: 1.51 µM (inactive)

Inquiry: Same question, C=C1C(=O)OC2/C=C(/C)C3(O)OC(C)(CC(OC(=O)C(C)C)C12)CC3OC(C)=O (centres undefined) this time
Reply text: 5.82 µM (inactive)

Inquiry: Same question, Cn1c(=O)c2c(ncn2CCSS(=O)(=O)O)n(C)c1=O this time
Reply text: > 100 µM (inactive)

Inquiry: Same question, C=C1C(=O)O[C@H]2C(=O)[C@H](C)CCC[C@@](C)(O)/C=C\C[C@@]3(C)O[C@@H]3C[C@@H]12 this time
Reply text: 4.19 µM (inactive)

Inquiry: Same question, CNC(=O)OCC1C2=C(C(=O)C(C)=C(N)C2=O)N2CC3C(N3C)C12OC (centres undefined) this time
Reply text: 27.7 µM (inactive)

Inquiry: Same question, O=c1c2c(F)c(F)c(F)c(F)c2sc2nccn12 this time
Reply text: 18.4 µM (inactive)

Inquiry: Same question, COc1cc2c(cc1OC)CC1c3cc(OC)c(OC)cc3CCN1CC2 (centres undefined) this time
Reply text: > 100 µM (inactive)

Inquiry: Same question, CC[N+](CC)(CC)/C(=N\S(=O)(=O)c1ccc(Cl)cc1)[N-]S(=O)(=O)c1cc(C)c(Cl)cc1S this time
Reply text: 58.7 µM (inactive)

Inquiry: Same question, O=C1NN=C(c2ccc([N+](=O)[O-])cc2)C1n1nc(-c2ccccc2)c2ccccc2c1=O (centres undefined) this time
Reply text: > 100 µM (inactive)

Inquiry: Same question, c1ccc(Nc2nnc(-c3ccccc3Nc3ccccc3-c3nnc(Nc4ccccc4)s3)s2)cc1 this time
Reply text: > 100 µM (inactive)

Inquiry: Same question, N=c1oc2cc(O)c(O)cc2cc1C(N)=O this time
Reply text: > 100 µM (inactive)

Inquiry: Same question, CC1(C)[C@@H](Cn2nnc3c(N)ncnc32)CC[C@@]1(C)CO this time
Reply text: > 100 µM (inactive)

Inquiry: Same question, CN(NC(=O)CC(=O)NN(C)C(=S)c1ccccc1)C(=S)c1ccccc1 this time
Reply text: > 100 µM (inactive)

Inquiry: Same question, CCOC(=O)NN1C(=O)C(=P(c2ccccc2)(c2ccccc2)c2ccccc2)C(C(=O)OC)=C1C this time
Reply text: > 100 µM (inactive)

Inquiry: Same question, COc1ccc(/N=N/N2CCCC2)cc1 this time
Reply text: 57.1 µM (inactive)
